- system.under.test: NPR-A IgG fusion (A-IgG) (Homo sapiens, UniProt P16066)
- Sequence (P16066 with tags, fused parts or gaps limits assumed): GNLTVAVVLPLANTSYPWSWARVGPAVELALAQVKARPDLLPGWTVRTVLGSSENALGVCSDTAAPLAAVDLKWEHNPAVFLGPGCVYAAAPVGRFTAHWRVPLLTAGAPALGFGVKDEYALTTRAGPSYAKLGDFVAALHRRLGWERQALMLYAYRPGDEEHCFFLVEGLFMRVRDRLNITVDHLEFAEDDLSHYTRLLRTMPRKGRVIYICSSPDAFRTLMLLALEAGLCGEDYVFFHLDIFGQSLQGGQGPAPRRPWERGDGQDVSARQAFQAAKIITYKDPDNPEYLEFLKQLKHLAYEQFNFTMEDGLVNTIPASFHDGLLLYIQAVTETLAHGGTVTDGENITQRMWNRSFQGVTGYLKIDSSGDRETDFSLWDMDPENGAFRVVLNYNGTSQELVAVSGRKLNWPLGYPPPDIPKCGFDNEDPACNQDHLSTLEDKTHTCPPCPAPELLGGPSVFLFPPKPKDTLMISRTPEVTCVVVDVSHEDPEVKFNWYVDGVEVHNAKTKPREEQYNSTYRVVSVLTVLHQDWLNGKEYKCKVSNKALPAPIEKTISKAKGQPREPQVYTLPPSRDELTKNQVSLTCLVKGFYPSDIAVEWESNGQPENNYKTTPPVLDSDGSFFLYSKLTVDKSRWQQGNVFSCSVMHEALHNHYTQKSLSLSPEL
- experiment.notes: Phage ELISA measurement of phagemid affinities for NPR-A (A-IgG)
- experimental.conditions: ratio of mutant BNP phagemid binding affinity (EC50) to ANP phagemid binding to A-IgG; clones after 7 rounds of selection
Where no end group is shown, it is not given here.
y means recorded Binding to NPR-A ratio of mutant/hANP is 4 or above; n means it is below 4.

substance	category.label
hBNP Lys14Asn, Ser19Arg (SPKMVQGSGCFGRNMERIRSSSGLGCKVLRRH; ends and bridges not checked; cysteine pairing not given here) [N R, measured as BNP-phagemid clone (Display BNP, K3D)]	n
hBNP Lys14Asn, Ser19Ala, Ser20Arg, Ser21Glu (SPKMVQGSGCFGRNMERIARESGLGCKVLRRH; ends and bridges not checked; cysteine pairing not given here) [N A R E, measured as BNP-phagemid clone (Display BNP, K3D)]	n
hBNP Lys14Asn, Ser19Arg, Ser20Asn, Ser21Thr (SPKMVQGSGCFGRNMERIRNTSGLGCKVLRRH; ends and bridges not checked; cysteine pairing not given here) [N R N T, measured as BNP-phagemid clone (Display BNP, K3D)]	y
hBNP Lys14Thr, Ser19Arg, Ser20His, Ser21Gly, Ser22Gly (SPKMVQGSGCFGRTMERIRHGGGLGCKVLRRH; displayed on phagemid) [T R H G H, measured as BNP-phagemid clone (Display BNP, K3D)]	y
hBNP Gly23Leu, Leu24Trp, Gly25Arg (SPKMVQGSGCFGRKMERISSSSLWRCKVLRRH; ends and bridges not checked; cysteine pairing not given here) [L W R, measured as BNP-phagemid clone (Display BNP, K3D)]	n
hBNP Lys14Asn, Ser19Arg, Ser20Thr, Ser21Lys (SPKMVQGSGCFGRNMERIRTKSGLGCKVLRRH; ends and bridges not checked; cysteine pairing not given here) [N R T K, measured as BNP-phagemid clone (Display BNP, K3D)]	y

###

- system.under.test: NPR-A IgG fusion (A-IgG) (Homo sapiens, UniProt P16066)
- experiment.notes: Phage ELISA measurement of phagemid affinities for NPR-A (A-IgG)
- experimental.conditions: ratio of mutant BNP phagemid binding affinity (EC50) to ANP phagemid binding to A-IgG; clones after 7 rounds of selection
Where no end group is shown, it is not given here.
# if value of Binding to NPR-A ratio of mutant/hANP reaches 2, tag Criterion met; if it stays below, tag Criterion not met

substance	category.label
hBNP Gly23Met, Leu24Tyr, Gly25Arg (SPKMVQGSGCFGRKMERISSSSMYRCKVLRRH; ends and bridges not checked; cysteine pairing not given here) [M Y R, measured as BNP-phagemid clone (Display BNP, K3D)]	Criterion met
F W R: BNP-phagemid clone of Table I (Display BNP, K3D); substitutions as in hBNP Gly23Phe, Leu24Trp, Gly25Arg (SEQ ID NO:2) (SPKMVQGSGCFGRKMERISSSSFWRCKVLRRH; ends and bridges not checked; cysteine pairing not given here)	Criterion not met
hBNP Lys14Asn, Ser19Arg, Ser20His, Ser21Leu (SPKMVQGSGCFGRNMERIRHLSGLGCKVLRRH; ends and bridges not checked; cysteine pairing not given here) [N R H L, measured as BNP-phagemid clone (Display BNP, K3D)]	Criterion not met
hBNP Lys14Asn, Ser19Arg, Ser20Gly, Ser21Met (SPKMVQGSGCFGRNMERIRGMSGLGCKVLRRH; ends and bridges not checked; cysteine pairing not given here) [N R G M, measured as BNP-phagemid clone (Display BNP, K3D)]	Criterion met
hBNP Lys14Asn, Ser19Gly, Ser20Gly, Ser21Leu (SPKMVQGSGCFGRNMERIGGLSGLGCKVLRRH; ends and bridges not checked; cysteine pairing not given here) [N G G L, measured as BNP-phagemid clone (Display BNP, K3D)]	Criterion met

meta.source: patent US6028055A
